tested on: A4-Fuk; assay: cells; assay type: functional, cell-based; settings: Homo sapiens;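 note: growth inhibition of A4-Fuk cells, read out by a cell viability assay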
Description: SANGER: Inhibition of human A4-Fuk cell growth in a cell viability assay.
parameter: IC50

compound=CCC(=O)N1CCN(c2ccc(-n3c(=O)ccc4cnc5ccc(-c6cnc7ccccc7c6)cc5c43)cc2C(F)(F)F)CC1 value_observed="0.0132 µM"
compound=CN1CCN(CCOc2cc(OC3CCOCC3)c3c(Nc4c(Cl)ccc5c4OCO5)ncnc3c2)CC1 value_observed="> 2 µM"
compound=CC1=C2C[C@H]3[C@@H](CC=C4C[C@@H](O)CC[C@@]43C)[C@@H]2CC[C@]12O[C@@H]1C[C@H](C)CN[C@H]1[C@H]2C value_observed="> 16 µM"
compound=COc1ccc(C2=N[C@@H](c3ccc(Cl)cc3)[C@@H](c3ccc(Cl)cc3)N2C(=O)N2CCNC(=O)C2)c(OC(C)C)c1 value_observed="> 8 µM"
compound=COC(=O)CNC(=O)C(=O)OC value_observed="45 µM"

I would be grateful if you could provide IC50 for each of the following entries.
1. COc1cc([C@@H]2c3cc4c(cc3[C@@H](O[C@@H]3O[C@@H]5CO[C@@H](C)O[C@H]5[C@H](O)[C@H]3O)[C@H]3COC(=O)[C@H]23)OCO4)cc(OC)c1O [ETOPOSIDE]
2. Cc1ccc(Nc2nccc(N(C)c3ccc4c(C)n(C)nc4c3)n2)cc1S(N)(=O)=O
3. CNC(=O)c1cc(Oc2ccc(NC(=O)Nc3ccc(Cl)c(C(F)(F)F)c3)cc2)ccn1

["0.841 µM", "> 8 µM", "> 4 µM"]
